tested on: HL-1; assay: relative cell viability (CellTiter-Glo) vs DMSO control (% of DMSO control); higher = more viable cells; settings: oxygen condition: hypoxia 48 h (1% O2) + reoxygenation 24 h; 5000 nM
Overview of recorded relative cell viability for various compounds
Form: value (number only, do not type unit).

Look over these answered cases.
compound: CC(=O)O[C@@]12CO[C@@H]1C[C@H](O)[C@@]1(C)C(=O)[C@H](O)C3=C(C)[C@@H](O)C[C@@](O)([C@@H](OC(=O)c4ccccc4)[C@H]21)C3(C)C
value: 113
//
compound: CC[N+]1(C)CCCC(OC(=O)C(O)(c2ccccc2)c2ccccc2)C1 (centres undefined) [Pipenzolate Bromide]
value: 105
//
compound: CNC(=O)Oc1ccc2c(c1)[C@]1(C)CCN(C)[C@@H]1N2C [Physostigmine Salicylate]
value: 41.9

// next entry
## Task Returns the measured relative cell viability for the input compound. Input: O=C(O[C@H]1C[N+]2(CCCOc3ccccc3)CCC1CC2)C(O)(c1cccs1)c1cccs1 [Aclidinium Bromide]
## Result 110

====

test system: HL-1; assay: relative cell viability (CellTiter-Glo) vs DMSO control (% of DMSO control); higher = more viable cells; settings: oxygen condition: normoxia 72 h; 1000 nM
Where a name gives a salt, the structure may show the parent alone.
assayReadout: relative cell viability
Form: value (number only, do not type unit).

compound: CC(=O)O[C@@]12CO[C@@H]1C[C@H](O)[C@@]1(C)C(=O)[C@H](O)C3=C(C)[C@@H](O)C[C@@](O)([C@@H](OC(=O)c4ccccc4)[C@H]21)C3(C)C
assaySystem: HL-1
value: 103

compound: C[C@]12C/C(=C/O)C(=O)C[C@@H]1CC[C@@H]1[C@@H]2CC[C@@]2(C)[C@H]1CC[C@]2(C)O
assaySystem: HL-1
value: 105

compound: C#C[C@]1(O)C=C[C@H]2[C@@H]3CCC4=CC(=O)CC[C@@H]4[C@H]3CC[C@@]21CC
assaySystem: HL-1
value: 105

compound: NCCc1c[nH]c2ccc(O)cc12 [Serotonin HCl]
assaySystem: HL-1
value: 100

## Task Returns the measured relative cell viability for the input compound. Input: O=C(O[C@H]1C[C@H]2CC[C@@H](C1)[N+]21CCCC1)C(O)(c1ccccc1)c1ccccc1 [Trospium chloride]
## Result 95.8

====

Overview of recorded relative cell viability for various molecules
test system: HL-1; assay: relative cell viability (CellTiter-Glo) vs DMSO control (% of DMSO control); higher = more viable cells; settings: oxygen condition: hypoxia 48 h (1% O2) + reoxygenation 24 h; 200 nM
Structures can show the parent of a compound that is named as a salt.
Form: value (number only, do not type unit).

Look over these answered cases.
molecule: C[N+](C)(C)CCCCCCCCCC[N+](C)(C)C [Decamethonium bromide]
assayReadout: relative cell viability
value: 103
//
molecule: CCCN1C[C@H](CSC)C[C@@H]2c3cccc4[nH]cc(c34)C[C@H]21 [Pergolide mesylate]
assayReadout: relative cell viability
value: 100
//
molecule: C[C@]12C/C(=C/O)C(=O)C[C@@H]1CC[C@@H]1[C@@H]2CC[C@@]2(C)[C@H]1CC[C@]2(C)O
assayReadout: relative cell viability
value: 104
//
molecule: C#C[C@]1(O)C=C[C@H]2[C@@H]3CCC4=CC(=O)CC[C@@H]4[C@H]3CC[C@@]21CC
assayReadout: relative cell viability
value: 100
//
molecule: COc1ccc(C(=O)N2CCCC2=O)cc1
assayReadout: relative cell viability
value: 111
//
molecule: CC(=O)O[C@@]12CO[C@@H]1C[C@H](O)[C@@]1(C)C(=O)[C@H](O)C3=C(C)[C@@H](O)C[C@@](O)([C@@H](OC(=O)c4ccccc4)[C@H]21)C3(C)C
assayReadout: relative cell viability
value: 102
//
molecule: CCN(C)C(=O)Oc1cccc([C@H](C)N(C)C)c1 [Rivastigmine tartrate]
assayReadout: relative cell viability
value: 102

// next entry
## Task Reported relative cell viability for HL-1, given O=P1(NCCCl)OCCCN1CCCl (stereo not drawn) [Ifosfamide] ?
## Result 117
